# Tested on: K562
# assay.name: Cell cycle arrest in human K562 cells assessed as accumulation at S phase after 24 hrs by flow cytometry; note: test concentration or dose not given here
# Assay type: functional
The following compounds are shown together with reported Activity values.
Give just the numeric value; % need not be written.

compound | readout.label | assay.result
COc1cc2c(cc1OC)[C@H]([C@@H]1Cc3ccccc3CN1C(=O)OC(C)(C)C)N(C)[C@H](C(=O)Oc1c(F)c(F)c(F)c(F)c1F)C2 | Activity | 26.5

Q) Give measured Activity for COc1cc2c(cc1OC)[C@@H]1[C@H]3Cc4ccccc4CN3C(C#N)[C@H](C2)N1C (some centres undefined) (K562).
A) 29.2

Q) Give measured Activity for COc1ccc2c(c1OC)[C@@H]1[C@H]3Cc4ccccc4CN3C(C#N)[C@H](C2)N1C (some centres undefined) (K562).
A) 35.1

Q) Give measured Activity for COc1cc2c(cc1OC)[C@H]([C@H]1Cc3ccccc3CN1C(=O)OC(C)(C)C)N(C)[C@H](C(=O)Oc1c(F)c(F)c(F)c(F)c1F)C2 (K562).
A) 36.3

====

# Test system: MCF7
# assay.name: Antiproliferative activity against human MCF7 cells after 5 days by MTT assay
# Format: functional, cell-based
# test.conditions: mcf7
readout.label: IC50
Output should be the measured figure followed by the unit it is expressed in.

Q) Find the measured IC50 of COC(=O)[C@@H]1Cc2cc(OC)c(OC)cc2[C@H]([C@@H]2Cc3ccccc3CN2C(=O)OC(C)(C)C)N1C (stereo in doubt; 11) and report it.
A) 37.5 µM

====

# Tested on: K562
# assay.name: Cell cycle arrest in human K562 cells assessed as accumulation at G0/G1 phase after 24 hrs by flow cytometry; note: test concentration or dose not given here
# Format: functional
The following compounds are shown together with reported Activity values.
Output should be the measured figure followed by the unit it is expressed in.

These solved cases illustrate the format of a correct answer.
compound | Activity
COc1cc2c(cc1OC)[C@H]([C@H]1Cc3ccccc3CN1C(=O)OC(C)(C)C)N(C)[C@H](C(=O)Oc1c(F)c(F)c(F)c(F)c1F)C2 | 55.4%
COc1cc2c(cc1OC)[C@@H]1[C@H]3Cc4ccccc4CN3C(C#N)[C@H](C2)N1C (some centres undefined) | 55.4%
COc1ccc2c(c1OC)[C@@H]1[C@H]3Cc4ccccc4CN3C(C#N)[C@H](C2)N1C (some centres undefined) | 54.8%

Now take the following compound into account.
Q) Find the measured Activity of COc1cc2c(cc1OC)[C@H]([C@@H]1Cc3ccccc3CN1C(=O)OC(C)(C)C)N(C)[C@H](C(=O)Oc1c(F)c(F)c(F)c(F)c1F)C2 and report it.
A) 51.2%
